system: Human B Lymphocyte cell line, SU-DHL-8; assay: Relative cell viability, SU-DHL-8 (CCK-8); assay type: cell-based; conditions: SU-DHL-8, 50 μM, 48 hours, untreated (DMSO) = 100%
OBSERVABLE: Relative cell viability (%)
// return numeric value only (unit: %, not printed)

Solved cases below.
CN1CCN(CCCCCCCCCCCCNC(=O)c2cccnc2F)CC1 : 31.11
Cl.Nc1ncccc1C(=O)NCCCCCCCCCCCCN1CC[C@H](N)C1 : 4.31
Nc1ncccc1C(=O)NCCCCCCCCCCCCN1CC(F)(F)C1 : 35.70

# Relative cell viability (%) (compound: `CC(C)(C)OC(=O)N[C@H]1CCN(CCCCCCCCCCCCNC(=O)c2cccnc2N)C1` ) is 4.09

# Relative cell viability (%) (compound: `C[C@H]1CNCCN1CCCCCCCCCCCCNC(=O)c1cccnc1N.Cl` ) is 2.32

# Relative cell viability (%) (compound: CC1CN(C)C(CCCCCCCCCCCCNc2ccc3cncnc3n2)N1 (stereo not shown) ) is 1.58

# Relative cell viability (%) (compound: `Nc1ncccc1C(=O)NCCCCCCCCCCCCN1CCC(Oc2ccncc2)CC1` ) is 1.42

# Relative cell viability (%) (compound: `Nc1ncccc1C(=O)NCCCCCCCCCCCCN1CCS(=O)(=O)CC1` ) is 0.95

# Relative cell viability (%) (compound: `Cc1ccc(OC2CCN(CCCCCCCCCCCCNC(=O)c3cccnc3N)CC2)cc1` ) is 0.48

# Relative cell viability (%) (compound: CC1CCCN(CCCCCCCCCCCCNC(=O)c2cccnc2N)CC1 (stereo not shown) ) is 4.27
